The reported measurements were obtained from patent US20260234157A1.

Target: AR protein (Homo sapiens, UniProt P10275)
Construct: degradation activity of the compounds disclosed in the present disclosure on AR protein in VCaP cells; host or cells: VCaP
Sequence (P10275 1-920): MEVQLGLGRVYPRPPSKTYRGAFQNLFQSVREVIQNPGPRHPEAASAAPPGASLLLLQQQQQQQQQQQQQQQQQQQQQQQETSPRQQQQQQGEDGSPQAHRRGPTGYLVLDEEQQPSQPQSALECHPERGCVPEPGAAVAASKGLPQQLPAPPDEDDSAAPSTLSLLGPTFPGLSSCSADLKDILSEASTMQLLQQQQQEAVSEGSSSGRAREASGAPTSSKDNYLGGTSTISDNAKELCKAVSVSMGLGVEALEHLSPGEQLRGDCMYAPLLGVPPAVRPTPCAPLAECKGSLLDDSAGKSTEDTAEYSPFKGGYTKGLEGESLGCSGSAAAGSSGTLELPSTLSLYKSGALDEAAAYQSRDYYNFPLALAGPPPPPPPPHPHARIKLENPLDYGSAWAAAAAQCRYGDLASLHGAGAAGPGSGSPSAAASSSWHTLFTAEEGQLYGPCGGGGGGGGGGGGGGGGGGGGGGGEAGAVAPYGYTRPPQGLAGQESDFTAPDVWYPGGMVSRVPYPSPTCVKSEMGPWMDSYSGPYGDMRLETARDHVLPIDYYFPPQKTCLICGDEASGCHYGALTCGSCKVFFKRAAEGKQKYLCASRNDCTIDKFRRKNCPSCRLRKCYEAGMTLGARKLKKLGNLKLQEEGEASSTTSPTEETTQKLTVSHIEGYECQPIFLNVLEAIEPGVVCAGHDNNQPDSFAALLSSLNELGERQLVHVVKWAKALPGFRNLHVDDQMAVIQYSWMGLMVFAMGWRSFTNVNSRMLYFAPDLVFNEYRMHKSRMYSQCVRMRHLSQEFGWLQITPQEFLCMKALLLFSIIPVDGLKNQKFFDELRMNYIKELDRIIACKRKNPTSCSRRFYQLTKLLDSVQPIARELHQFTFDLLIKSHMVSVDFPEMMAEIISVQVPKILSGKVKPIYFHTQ
Assay: Degradation of AR protein in VCaP cells (Western blot)
Type: cell-based
Settings: compound at 10 nM, 8 hours, read-out: Degradation rate of the AR protein in VCaP cells, 10 nM (%)
parameter: inhibition at 0.01 µM (%)
Give the value, in units of %, as a plain number.

>>> readout_value("CCC1(CN2CCC3(CC2)COc2c3ccc3c2CN(C2CCC(=O)NC2=O)C3=O)CCN(c2ccc(C(=O)N[C@H]3C(C)(C)[C@H](Oc4ccc(C#N)c(OC)c4)C3(C)C)cc2)CC1 (some centres unmarked)")
13
>>> readout_value("N#Cc1ccc(O[C@H]2CC[C@H](NC(=O)c3ccc(N4CC[C@H](CN5CCC6(CC5)COc5cc7c(cc5C6)C(=O)N(C5CCC(=O)NC5=O)C7=O)C4)nn3)CC2)cc1Cl (some centres unmarked)")
47
>>> readout_value("CC1(CN2CCC3(CC2)COc2c3ccc3c2CN(C2CCC(=O)NC2=O)C3=O)CCN(c2ccc(C(=O)N[C@H]3C(C)(C)[C@H](Oc4ccc(C#N)c(Cl)c4)C3(C)C)cc2)CC1 (some centres unmarked)")
8

Form: molecule = N#Cc1ccc(O[C@H]2CC[C@H](NC(=O)c3ccc(N4CCC5(CC(N6CCC7(CC6)COc6cc8c(cc6C7)C(=O)N(C6CCC(=O)NC6=O)C8=O)C5)C4)nn3)CC2)cc1Cl (some centres unmarked) ; inhibition at 0.01 µM = 67

Form: molecule = COC1(CN2CCC3(CC2)COc2cc4c(cc2C3)C(=O)N(C2CCC(=O)NC2=O)C4=O)CCN(c2ccc(C(=O)NC3CCC(Oc4ccc(C#N)c(Cl)c4)CC3)nn2)CC1 (centres unmarked) ; inhibition at 0.01 µM = 50

Form: molecule = COc1cc(O[C@H]2C(C)(C)[C@H](NC(=O)c3ccc(N4CCC(CN5CC6(CCc7cc8c(cc7O6)CN(C6CCC(=O)NC6=O)C8=O)C5)CC4)cc3)C2(C)C)ccc1C#N (some centres unmarked) ; inhibition at 0.01 µM = 47

Form: molecule = COc1cc(O[C@H]2C(C)(C)[C@H](NC(=O)c3ccc(N4CCC(F)(CN5CCC6(CC5)COc5cc7c(cc5O6)CN(C5CCC(=O)NC5=O)C7=O)CC4)cc3)C2(C)C)ccc1C#N (some centres unmarked) ; inhibition at 0.01 µM = 9

Form: molecule = N#Cc1ccc(O[C@H]2CC[C@H](NC(=O)c3ccc(N4CCC(CN5CC6(CCc7cc8c(cc7O6)CN(C6CCC(=O)NC6=O)C8=O)C5)CC4)nn3)CC2)cc1Cl (some centres unmarked) ; inhibition at 0.01 µM = 72

Form: molecule = N#Cc1ccc(O[C@H]2CC[C@H](NC(=O)c3ccc(N4CCC5(CCc6cc7c(cc6O5)C(=O)N(C5CCC(=O)NC5=O)C7=O)CC4)nn3)CC2)cc1Cl (some centres unmarked) ; inhibition at 0.01 µM = 9

Form: molecule = COc1cc(O[C@H]2C(C)(C)[C@H](NC(=O)c3ccc(N4CCC(CN5CCC6(CCc7cc8c(cc7O6)C(=O)N(C6CCC(=O)NC6=O)C8=O)CC5)CC4)cc3)C2(C)C)ccc1C#N (some centres unmarked) ; inhibition at 0.01 µM = -11

Form: molecule = COc1cc(O[C@H]2C(C)(C)[C@H](NC(=O)c3ccc(N4CCC(CN5CC6(CCc7cc8c(cc7O6)C(=O)N(C6CCC(=O)NC6=O)C8=O)C5)CC4)cc3)C2(C)C)ccc1C#N (some centres unmarked) ; inhibition at 0.01 µM = 7

Form: molecule = CCOC1(CN2CCC3(CC2)COc2c3ccc3c2C(=O)N(C2CCC(=O)NC2=O)C3=O)CCN(c2ccc(C(=O)N[C@H]3C(C)(C)[C@H](Oc4ccc(C#N)c(OC)c4)C3(C)C)cc2)CC1 (some centres unmarked) ; inhibition at 0.01 µM = -4

Form: molecule = N#Cc1ccc(O[C@H]2CC[C@H](NC(=O)c3ccc(N4CCC5(CCC(N6CCC7(CC6)COc6cc8c(cc67)C(=O)N(C6CCC(=O)NC6=O)C8=O)CC5)CC4)nn3)CC2)cc1Cl (some centres unmarked) ; inhibition at 0.01 µM = 83

Form: molecule = N#Cc1ccc(O[C@H]2CC[C@H](NC(=O)c3ccc(N4CCC(CN5CCC6(CC5)Cc5cc7c(cc5O6)C(=O)N(C5CCC(=O)NC5=O)C7=O)CC4)nn3)CC2)cc1Cl (some centres unmarked) ; inhibition at 0.01 µM = 72

Form: molecule = COC1(CN2CC3(CCc4ccc5c(c4O3)C(=O)N(C3CCC(=O)NC3=O)C5=O)C2)CCN(c2ccc(C(=O)N[C@H]3CC[C@H](Oc4ccc(C#N)c(Cl)c4)CC3)nn2)CC1 (some centres unmarked) ; inhibition at 0.01 µM = -43

Form: molecule = COc1cc(O[C@H]2CC[C@H](NC(=O)c3ccc(N4CCC(CN5CCC6(CC5)COc5c6ccc6c5C(=O)N(C5CCC(=O)NC5=O)C6=O)(OC)CC4)cc3)CC2)ccc1C#N (some centres unmarked) ; inhibition at 0.01 µM = 11

Form: molecule = N#Cc1ccc(O[C@H]2CC[C@H](NC(=O)c3ccc(N4CCC5(CC4)CC(F)(F)c4cc6c(cc4O5)C(=O)N(C4CCC(=O)NC4=O)C6=O)nn3)CC2)cc1Cl (some centres unmarked) ; inhibition at 0.01 µM = 17

Form: molecule = N#Cc1ccc(O[C@H]2CC[C@H](NC(=O)c3ccc(N4CCC5(CC4)COc4cc6c(cc45)C(=O)N(C4CCC(=O)NC4=O)C6=O)nn3)CC2)cc1Cl (some centres unmarked) ; inhibition at 0.01 µM = 16

Form: molecule = COc1cc(O[C@H]2C(C)(C)[C@H](NC(=O)c3ccc(N4CCC(C#N)(CN5CCC6(CC5)COc5c6ccc6c5CN(C5CCC(=O)NC5=O)C6=O)CC4)cc3)C2(C)C)ccc1C#N (some centres unmarked) ; inhibition at 0.01 µM = 17

Form: molecule = COc1cc(O[C@H]2CC[C@H](NC(=O)c3ccc(N4CCC(CN5CC6(CCc7cc8c(cc7O6)C(=O)N(C6CCC(=O)NC6=O)C8=O)C5)(OC)CC4)cc3)CC2)ccc1C#N (some centres unmarked) ; inhibition at 0.01 µM = -5
